What follows is literature data on log10 of IC50 for Dipeptidyl peptidase 4 (Homo sapiens, UniProt P27487).
In our notation, the value equals log10 of IC50 in nM.

Sample answers from the record:
CC#CCn1c(N2CCC[C@@H](N)C2)nc2c1c(=O)n(Cc1nc(-c3ccccc3)nc3ccccc13)c(=O)n2C
0.95
CC(C)=CCC/C(C)=C/CCC1=C[C@@H](c2ccc(C)cc2)OC1=O
4.22
CC#CCn1c(N2CCC[C@@H](N)C2)nc2c1c(=O)n(Cc1nccc(-c3ccccc3)n1)c(=O)n2C
0.48

Prompt: Returns the measured log10 of IC50 for the input compound. Input: "CC#CCn1c(N2CCC[C@@H](N)C2)nc2c1c(=O)n(Cc1cc(C#N)c3ccccc3n1)c(=O)n2C"
Completion: 0.30

Prompt: Now the compound CC(C)NCC(=O)N1CCCC1B(O)O (centres unmarked)
Completion: 2.95

====

What follows is literature data on pIC50 for Dipeptidyl peptidase 4 (Homo sapiens).
Quick note: pIC50 means taking -log10 of the concentration in moles per liter.

C[C@H](NCC(=O)N1CCC[C@H]1C#N)[C@H](O)c1ccccc1
6.85

Prompt: Returns the measured pIC50 for the input molecule. Input: "CCCNC(=O)c1nc(C(F)(F)F)n2c1CN(C(=O)C[C@H](N)Cc1cc(F)c(F)cc1F)CC2"
Completion: 7.28

Prompt: Now the molecule "CC(C)=CCCC1=C[C@@H](c2cc(O)ccc2O)OC1=O"
Completion: 4.89

Prompt: Now the molecule C[C@@]1(NCC(=O)N2C[C@@H](F)C[C@H]2C#N)C[C@H]2CC(C#N)C[C@H]2C1 (some centres unmarked)
Completion: 8.81

Prompt: Now the molecule "O=C(CN1CCn2c(nnc2C(F)(F)F)C1)NC1CCCCC1"
Completion: 8.74

====

What follows is literature data on pIC50 for Dipeptidyl peptidase 4 (Homo sapiens).
pIC50: −log10 of the molar value.
Outcome label depends on pIC50 relative to 7: at/above gives YES, below gives NO.

Worked examples, 3 molecules total:
COc1ccc([C@@H]2C=C(CC/C=C(\C)CCC=C(C)C)C(=O)O2)cc1
NO
CC#CCn1c(N2CCC[C@@H](N)C2)nc2c1c(=O)n(Cc1cc(C#N)cc3ccccc13)c(=O)n2C
YES
CC(C)=CCC/C(C)=C/CCC1=C[C@H](c2ccc(C(C)(C)C)cc2)OC1=O
NO

Prompt: Decide: pIC50 of "CC(=O)O[C@@H]1C[C@@H]2C[C@@](C)(NCC(=O)N3CCC[C@H]3C#N)C[C@@H]2C1" >= 7?
Completion: YES

Prompt: Now the molecule "NC[C@]1(c2cccc(Cl)c2)CC[C@H](N2C(=O)OC[C@H]2Cc2ccccc2)CC1"
Completion: NO

Prompt: Now the molecule "Cn1c(=O)c2c(-c3ccc(CN)cc3)c(CN)c(N)nc2n(C)c1=O"
Completion: NO

Prompt: Now the molecule "N[C@H]1C[C@@H](N2CC3=C(C2)CN(S(=O)(=O)c2ccccc2)C3)CO[C@@H]1c1cc(F)ccc1F"
Completion: YES

====

What follows is literature data on log10(IC50) for Dipeptidyl peptidase 4 (Homo sapiens).
In our notation, the value equals log10 of IC50 in µM.

Sample answers from the record:
NCC(=O)N1CCC[C@H]1B(O)O
0.84
CC(C)=CCC/C(C)=C/CCC1=C[C@@H](c2ccccc2[N+](=O)[O-])OC1=O
1.32
C[C@@]1(NCC(=O)N2C[C@@H](F)C[C@H]2C#N)C[C@H]2C[C@@H](O)C[C@H]2C1
-2.60
COc1ccc([C@H]2C=C(CC/C=C(\C)CCC=C(C)C)C(=O)O2)cc1
1.26

Prompt: Returns the measured log10(IC50) for the input compound. Input: "CC(C)=CCC/C(C)=C/CCC1=C[C@@H](c2ccc(C(C)(C)C)cc2)OC1=O"
Completion: 1.20

Prompt: Now the compound "CO[C@@H]1C[C@@H]2C[C@@](C)(NCC(=O)N3CCC[C@H]3C#N)C[C@@H]2C1"
Completion: -1.95

Prompt: Now the compound "NC[C@]1(c2cccc(Cl)c2)CC[C@H](N(Cc2ccn[nH]2)C(=O)c2cccnc2)CC1"
Completion: -0.35

Prompt: Now the compound "N[C@@H](CC(=O)N1CCn2c(C(F)(F)F)nc(C(=O)[O-])c2C1)Cc1cc(F)c(F)cc1F.[Na+]"
Completion: -1.66

Prompt: Now the compound "Cn1c(=O)n(Cc2cc(F)ccc2F)c2c(N3CCC[C@@H](N)C3)ccnc21"
Completion: -0.26
